Source of measurements: patent US20210380703A1

Target: T1, Goat anti-Human Kappa
T1 construct: Positive control; also called biotinylated goat anti-human kappa light chain
Test: ELISA; positive control; also: test concentration or dose not given here
optical density listing for selected binders.
Kindly provide the numeric value in OD only, without the unit symbol.

- 371_H11 (antibody, V domains shown, VH/VL only) VH: EVQLLESGGGLVQPGGSLRLSCAASGFTFSSYSMNWVRQAPGKGLEWVSGINYNGGYKGYADSVKGRFTISRDNSKNTLYLQMNSLRAEDTAVYYCARGATWHDTHLDYWGQGTLVTVSS VL: DIQMTQSPSSLSASVGDRVTITCRASQSILTYLNWYQQKPGKAPKLLIYATTSRHSGVPSRFSGSGSGTDFTLTISSLQPEDFATYYCQQSYESPLTFGGGTKVEIK: 3.6
- 365_C12 (antibody, V domains shown, VH/VL only) VH: EVQLLESGGGLVQPGGSLRLSCAASGFTFSSYGMNWVRQAPGKGLEWVAGINYNSGYKSYADSVKGRFTISRDNSKNTLYLQMNSLRAEDTAVYYCARSANWHDTALDYWGQGTLVTVSS VL: DIQMTQSPSSLSASVGDRVTITCRASQSIVSYVNWYQQKPGKAPKLVIYAVTSLASGVPSRFSGSGSGTDFTLTISSLQPEDFATYYCQQSYDTPLTFGGGTKVEIK: 3.58
- 367_E12 (antibody, V domains shown, VH/VL only) VH: EVQLLESGGGLVQPGGSLRLSCAASGFTFSSYGMHWVRQAPGKGLEWVASINYNGGYTSYADSVKGRFTISRDNSKNTLYLQMNSLRAEDTAVYYCARGATWHDTHLDYWGQGTLVTVSS VL: DIQMTQSPSSLSASVGDRVTITCRASQSILTYVNWYQQKPGKAPKLLIYAASSLQSGVPSRFSGSGSGTDFTLTISSLQPEDFATYYCQQSYNSPLTFGGGTKVEIK: 3.71
- 367_B08 (antibody, V domains shown, VH/VL only) VH: EVQLLESGGGLVQPGGSLRLSCAASGFTFSDYGMNWVRQAPGKGLEWVSGINYNGGYKGYADSVKGRFTISRDNSKNTLYLQMNSLRAEDTAVYYCARSANWHDTALDYWGQGTLVTVSS VL: DIQMTQSPSSLSASVGDRVTITCRASQSILTYLNWYQQKPGKAPKLVIYAATSRASGVPSRFSGSGSGTDFTLTISSLQPEDFATYYCQQSYDNPLTFGGGTKVEIK: 3.03

Lab note: next binder to report on.
Find the measured optical density of 369_F05 (antibody, V domains shown, VH/VL only) VH: EVQLLESGGGLVQPGGSLRLSCAASGFTFSSYSMNWVRQAPGKGLEWVSGINYNGGYKSYADSVKGRFTISRDNSKNTLYLQMNSLRAEDTAVYYCARGATWHDTHLDYWGQGTLVTVSS VL: DIQMTQSPSSLSASVGDRVTITCRASQSISSYLNWYQQKPGKAPKLLIYAASSLQSGVPSRFSGSGSGTDFTLTISSLQPEDFATYYCQQGYDSPLTFGGGTKVEIK and report it.
3.46
